Task for the reader: assign each of the following molecules its reported pest or weed control at 31 g/ha.
# System: ragweed (common ragweed, Ambrosia elatior)
# METHOD NOTES: Test C postemergence
# Format: in vivo
# CONDITION PARAMETERS: Ambrosia artemisiifolia, post-emergence, 336 h; Postemergence, 31 g ai/ha, scale 0 to 100; read-out: Plant response rating, Ragweed

Solved entries:
N#Cc1cccc(Oc2ncc(Cl)cn2)c1Oc1cnc(Cl)cn1 [Compound 32]    55%
Fc1cccc(Oc2ncc(Cl)cn2)c1Oc1ncc(C(F)(F)F)cn1 [Compound 43]    75%
N#Cc1cccc(Oc2ncc(Cl)cn2)c1Oc1ccc(Cl)cc1 [Compound 36]    45%
Fc1cnc(Oc2c(Br)cccc2Oc2ncc(Cl)cn2)nc1 [Compound 22]    30%
Clc1cnc(Oc2cccc(Cl)c2Oc2ncc(Br)cn2)nc1 [Compound 17]    50%

Retrieve pest or weed control at 31 g/ha on ragweed (common ragweed, Ambrosia elatior); query Fc1cnc(Oc2c(F)cccc2Oc2ncc(Cl)cn2)nc1 [Compound 23] 60%

---

# Tested on: velvetleaf (Abutilon theophrasti)
# METHOD NOTES: Test C preemergence
# Format: in vivo
# CONDITION PARAMETERS: Abutilon theophrasti, pre-emergence; Preemergence, 16 g ai/ha; scale 0 to 100; read-out: Plant response rating, Velvetleaf
OUTCOME MEASURE: pest or weed control at 16 g/ha (%)
One number for each entry, in %.

Clc1cnc(Oc2cccc(Br)c2Oc2ncc(Cl)cn2)nc1    60

Working through the 4 compounds below one at a time, give pest or weed control at 16 g/ha for each.
1. Fc1cnc(Oc2c(F)ccc(F)c2Oc2ncc(F)cn2)nc1
2. Fc1ccc(F)c(Oc2ncc(Cl)cn2)c1Oc1ncc(Cl)cn1
3. Fc1cccc(Oc2ncc(Cl)cn2)c1Oc1ncc(Cl)cn1
4. N#Cc1cccc(Oc2ncc(Cl)cn2)c1Oc1ncc(C(F)(F)F)cn1

[75, 35, 100, 45]

---

# Tested on: field bindweed (Convolvulus arvensis)
# METHOD NOTES: Test E preemergence
# Assay type: in vivo
# CONDITION PARAMETERS: 125 g ai/ha, scale 0 to 100
OUTCOME MEASURE: Plant response rating, Field Bindweed
Numbers only.

Solved entries:
Clc1cnc(Oc2cccc(Br)c2Oc2ncc(Cl)cn2)nc1    10
Fc1cccc(Oc2ncc(C(F)(F)F)cn2)c1Oc1ncc(Cl)cn1    85
Fc1cccc(Oc2ncc(Cl)cn2)c1Oc1ncc(Cl)cn1    40

Read the next record carefully.
Please indicate Plant response rating, Field Bindweed recorded for Fc1cccc(Oc2ncc(Cl)cn2)c1Oc1ncc(C(F)(F)F)cn1 50

---

# Test system: winter barley (Hordeum vulgare)
# METHOD NOTES: Test D postemergence
# Type: in vivo
# CONDITION PARAMETERS: 16 g ai/ha, scale 0 to 100
OUTCOME MEASURE: Plant response rating, Barley, Winter
One number for each entry.

N#Cc1cccc(Oc2ncc(Cl)cn2)c1Oc1ncc(Cl)cn1    0
Fc1cnc(Oc2c(F)cccc2Oc2ncc(Cl)cn2)nc1    0
FC(F)(F)c1cnc(Oc2c(Br)cccc2Oc2ncc(Cl)cn2)nc1    10

Read the next record carefully.
Retrieve Plant response rating, Barley, Winter on winter barley (Hordeum vulgare); query Fc1cnc(Oc2c(Br)cccc2Oc2ncc(Cl)cn2)nc1 5

---

Task for the reader: assign each of the following compounds its reported pest or weed control at 125 g/ha.
# Tested on: johnsongrass (Sorghum halepense)
# METHOD NOTES: Test C postemergence
# Assay type: in vivo
# CONDITION PARAMETERS: Sorghum halepense, post-emergence, 336 h; Postemergence, 125 g ai/ha, scale 0 to 100; read-out: Plant response rating, Johnsongrass
Numbers only, in %.

Solved entries:
Fc1cnc(Oc2c(Br)cccc2Oc2ncc(Cl)cn2)nc1    5
Fc1cnc(Oc2c(F)ccc(F)c2Oc2ncc(F)cn2)nc1    20
N#Cc1cccc(Oc2ncc(C(F)(F)F)cn2)c1Oc1ncc(Cl)cn1    10

Working through the 2 compounds below one at a time, give pest or weed control at 125 g/ha for each.
1. N#Cc1cccc(Oc2ncc(Cl)cn2)c1Oc1ncc(Br)cn1
2. Fc1cccc(Oc2ncc(Cl)cn2)c1Oc1ccc(Cl)nc1

1. 5
2. 5

---

# System: chickweed (common chickweed, Stellaria media)
# METHOD NOTES: Test C postemergence
# Type: in vivo
# CONDITION PARAMETERS: Stellaria media, post-emergence; Postemergence, 62 g ai/ha, scale 0 to 100; read-out: Plant response rating, Chickweed
OUTCOME MEASURE: pest or weed control at 62 g/ha
Kindly report the value followed by its unit.

Fc1cccc(Oc2ncc(Cl)cn2)c1Oc1ncc(C(F)(F)F)cn1    70%

Working through the 4 compounds below one at a time, give pest or weed control at 62 g/ha for each.
1. Fc1ccc(F)c(Oc2ncc(Cl)cn2)c1Oc1ncc(Cl)cn1
2. Fc1cccc(Oc2ncc(Cl)cn2)c1Oc1ncc(Br)cn1
3. N#Cc1cccc(Oc2ncc(Cl)cn2)c1Oc1ccc(Cl)cn1
4. Clc1cnc(Oc2cccc(Cl)c2Oc2ncc(Br)cn2)nc1

1: 80%; 2: 40%; 3: 80%; 4: 70%

Please indicate pest or weed control at 62 g/ha recorded for Fc1cccc(Oc2ncc(C(F)(F)F)cn2)c1Oc1ncc(Cl)cn1 95%

---

# Test system: giant foxtail (Setaria faberii)
# METHOD NOTES: Test C preemergence
# Assay type: in vivo
# CONDITION PARAMETERS: Setaria faberi, pre-emergence, 336 h; Preemergence, 16 g ai/ha; scale 0 to 100; read-out: Plant response rating, Foxtail, Giant
Task for the reader: assign each of the following compounds its reported pest or weed control at 16 g/ha.
Kindly report the value followed by its unit.

Solved entries:
N#Cc1cccc(Oc2ncc(Cl)cn2)c1Oc1ncc(Br)cn1 [Compound 4]    10%
N#Cc1cccc(Oc2ncc(Cl)cn2)c1Oc1ncc(C(F)(F)F)cn1 [Compound 38]    85%

Working through the 2 compounds below one at a time, give pest or weed control at 16 g/ha for each.
1. Fc1cccc(Oc2ncc(Cl)cn2)c1Oc1ncc(Cl)cn1 [Compound 21]
2. Fc1cccc(Oc2ncc(C(F)(F)F)cn2)c1Oc1ncc(Cl)cn1 [Compound 42]

90%
85%

---

# Tested on: sedge, umbrella (small-flower umbrella sedge, Cyperus difformis)
# METHOD NOTES: Test B flooded paddy
# Assay type: in vivo
# CONDITION PARAMETERS: Cyperus difformis, 336 h; 250 g ai/ha, Flood, 13 to 15 days, scale 0 (no effect) to 100 (complete control); read-out: Plant response rating, Sedge, Umbrella
OUTCOME MEASURE: pest or weed control at 250 g/ha (%)
Numbers only, in %.

Solved entries:
N#Cc1cccc(Oc2ncc(Cl)cn2)c1Oc1ncc(C(F)(F)F)cn1    100
Fc1cnc(Oc2c(Cl)cccc2Oc2ncc(Cl)cn2)nc1    100
Fc1cnc(Oc2c(F)ccc(F)c2Oc2ncc(F)cn2)nc1    75
N#Cc1cccc(Oc2ncc(Cl)cn2)c1Oc1ncc(Cl)cn1    90
N#Cc1cccc(Oc2ncc(Cl)cn2)c1Oc1cnc(Cl)cn1    90
N#Cc1cccc(Oc2ncc(C(F)(F)F)cn2)c1Oc1ncc(Cl)cn1    100

Working through the 2 molecules below one at a time, give pest or weed control at 250 g/ha for each.
1. Clc1cnc(Oc2cccc(Cl)c2Oc2ncc(Br)cn2)nc1
2. Fc1cccc(Oc2ncc(Cl)cn2)c1Oc1ncc(C(F)(F)F)cn1

100
90

Please indicate pest or weed control at 250 g/ha recorded for Fc1cccc(Oc2ncc(Cl)cn2)c1Oc1ncc(Br)cn1 85

---

Task for the reader: assign each of the following molecules its reported pest or weed control at 250 g/ha.
# System: wild oat (Avena fatua)
# METHOD NOTES: Test C postemergence
# Format: in vivo
# CONDITION PARAMETERS: Avena fatua, post-emergence; Postemergence, 250 g ai/ha, scale 0 to 100; read-out: Plant response rating, Oat, Wild
Numbers only, in %.

Solved entries:
Fc1cccc(Oc2ncc(Cl)cn2)c1Oc1ccc(Cl)nc1 [Compound 20]    10
Fc1cnc(Oc2c(F)cccc2Oc2ncc(Cl)cn2)nc1 [Compound 23]    5
Clc1cnc(Oc2cccc(Cl)c2Oc2ncc(Br)cn2)nc1 [Compound 17]    15

Read the next record carefully.
Please indicate pest or weed control at 250 g/ha recorded for Fc1cnc(Oc2c(Br)cccc2Oc2ncc(Cl)cn2)nc1 [Compound 22] 15

---

# Tested on: kochia (Kochia scoparia)
# METHOD NOTES: Test A preemergence
# Format: in vivo
# CONDITION PARAMETERS: Bassia scoparia, pre-emergence, 240 h, 31 g ai/ha, 0 to 100 scale (0 no effect, 100 complete control), read-out: Kochia plant response rating
Output true for records whose pest or weed control at 31 g/ha is lower than 90%, false for records at or above 90%.

Consider the worked cases shown below.
N#Cc1cccc(Oc2ncc(Cl)cn2)c1Oc1cnc(Cl)cn1    false
Fc1ccc(F)c(Oc2ncc(Cl)cn2)c1Oc1ncc(Cl)cn1    true
N#Cc1cccc(Oc2ncc(Br)cn2)c1Oc1ccc(Cl)cn1    true

Decide: pest or weed control at 31 g/ha of N#Cc1cccc(Oc2ncc(Cl)cn2)c1Oc1ccc(Cl)cn1 strictly below 90%? true

Decide: pest or weed control at 31 g/ha of N#Cc1cccc(Oc2ncc(Cl)cn2)c1Oc1cccc(Cl)c1 strictly below 90%? true

Just for reference, patent US20170190671A1 is where these values come from.
